# tgt: T1, Dimeric Human Ang-2FD conjugated to human IgG1 (human)
# T1 construct: also called Human Ang-2FD-hFc; hAng-2FD-hFc
# measurement description: SPR, captured Ab, RT
metric name: Kd (nM)
Output spec: scalar in nM, unitless text.

Observe how each entry below is paired with its result.
H1H750N (antibody, V domains shown) VH: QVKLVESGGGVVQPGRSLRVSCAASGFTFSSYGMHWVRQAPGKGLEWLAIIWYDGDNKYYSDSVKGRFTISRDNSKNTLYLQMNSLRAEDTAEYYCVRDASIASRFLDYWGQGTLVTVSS VL: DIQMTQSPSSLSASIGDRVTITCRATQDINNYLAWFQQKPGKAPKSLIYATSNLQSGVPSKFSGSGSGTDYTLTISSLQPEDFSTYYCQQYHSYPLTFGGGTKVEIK	0.164
H1H695P (antibody, V domains shown) VH: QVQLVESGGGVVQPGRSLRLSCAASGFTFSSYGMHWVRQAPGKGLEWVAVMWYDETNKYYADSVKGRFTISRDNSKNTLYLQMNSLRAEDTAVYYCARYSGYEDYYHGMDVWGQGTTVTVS VL: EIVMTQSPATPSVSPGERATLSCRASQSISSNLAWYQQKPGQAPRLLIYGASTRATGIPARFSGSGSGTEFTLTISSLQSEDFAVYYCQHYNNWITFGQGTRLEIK	0.245
H1H690P (antibody, V domains shown) VH: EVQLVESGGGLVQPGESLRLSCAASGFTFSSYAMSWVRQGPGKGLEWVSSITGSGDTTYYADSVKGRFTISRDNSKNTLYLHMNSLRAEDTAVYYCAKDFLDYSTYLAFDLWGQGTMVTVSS VL: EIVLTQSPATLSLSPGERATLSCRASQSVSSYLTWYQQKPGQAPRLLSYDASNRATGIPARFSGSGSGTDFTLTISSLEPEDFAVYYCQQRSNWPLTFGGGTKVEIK	0.079
H1H704P (antibody, V domains shown) VH: QVQLVESGGDVVQPGRSLRLSCAASGFTFSSYGMHWVRQAPGKGLEWVAIIWYDGSNKYYADSVKGRFTISRDNSKNTLYLQMNSLRVEDTAVYSCARDFSISSRHFDYWGQGTLVTVSS VL: DIQMTQSPSSLSASVGDRVTITCRASQAINNYLAWFQQKPGKAPKSLIYATSNLQSGVPSQFSGSGSGTDYTLTISSLQPEDFATYYCQQYYIYPITFGQGTRLEIK	0.331

Now for a further binder.
# Kd of H1H706P (antibody, V domains shown) VH: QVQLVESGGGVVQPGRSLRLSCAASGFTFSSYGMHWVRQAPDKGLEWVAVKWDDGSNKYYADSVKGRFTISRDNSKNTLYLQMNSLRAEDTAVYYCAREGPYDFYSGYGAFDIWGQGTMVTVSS VL: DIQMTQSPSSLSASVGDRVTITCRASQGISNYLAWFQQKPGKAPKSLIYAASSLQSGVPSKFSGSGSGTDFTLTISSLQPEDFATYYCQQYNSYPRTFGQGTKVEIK = 0.201

Every entry's value here was drawn from patent US20140112930A1.
